- procedure_text: Drug levels in blood plasma and brain tissue by mass spectroscopy (ex vivo occupancy study)
- measurement_conditions: male, CD-1, mouse, brain (homogenized forebrain tissue), iv; mice, 3 mg/Kg i.v., 15 minutes post-dosing; read-out: drug levels in the homogonized brain tissue
molecules and their reported concentration at 15 min
readout_kind: concentration at 15 min (µM)

• O=C1[C@H](N2CC[C@@H](c3ccc(O)cc3)[C@H](F)C2)CCN1Cc1ccc(C(F)F)cc1 (single isomer, unassigned) = 2.2
• Cc1ccc(CN2CC[C@@H](N3CC[C@@H](c4ccc(O)cc4)[C@H](F)C3)C2=O)cc1 = 1.98
• O=C1[C@H](N2CCC(c3ccc(O)cc3)CC2)CCN1Cc1ccc(F)cc1 (single isomer, unassigned) = 0.9

Reference source for all entries: patent US9187506B2
